biological target: D(2) dopamine receptor (Rattus norvegicus); assay: Binding affinity against Dopamine receptor D2 at 10e-3 M concentration using [3H]spiperone in rat striatal tissue
Sequence (P61169 whole entry): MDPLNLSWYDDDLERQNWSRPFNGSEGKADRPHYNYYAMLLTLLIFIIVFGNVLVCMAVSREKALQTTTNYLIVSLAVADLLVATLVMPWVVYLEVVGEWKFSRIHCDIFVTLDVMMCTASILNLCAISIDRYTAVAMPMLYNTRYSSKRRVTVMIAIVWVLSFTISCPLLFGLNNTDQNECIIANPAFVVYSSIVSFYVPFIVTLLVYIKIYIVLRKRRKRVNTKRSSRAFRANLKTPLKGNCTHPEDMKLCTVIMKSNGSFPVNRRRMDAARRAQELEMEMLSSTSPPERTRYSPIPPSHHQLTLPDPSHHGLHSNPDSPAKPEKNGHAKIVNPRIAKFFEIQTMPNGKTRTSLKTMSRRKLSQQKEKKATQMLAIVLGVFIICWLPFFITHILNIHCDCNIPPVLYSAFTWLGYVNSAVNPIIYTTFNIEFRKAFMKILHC
Measurement label: Ki (nM)
Give bare numbers, in nM.

Query :: // map COc1cc(N)c(Cl)cc1C(=O)NC1CCN2CC(C)(c3ccccc3)CC2C1 (stereo unspecified) to recorded Ki (system: D(2) dopamine receptor (Rattus norvegicus))
Result :: 250
